Answer each item with its documented Ragweed plant response rating (0 to 100 scale).
System: ragweed (common ragweed, Ambrosia artemisiifolia)
Assay: Test A preemergence soil spray, visual injury rating 0-100
Assay type: in vivo
Conditions: 500 g ai/ha, 10 days, 0 = no effect, 100 = complete control
Excerpt: […]
Answers are plain numbers.

Consider the worked cases shown below.
INSERT INTO results (molecule, readout_value) VALUES
  ('CC1(C(=O)NC2C=CC(C(=O)OCCS(C)(=O)=O)C2)CN(c2cc(Cl)cc(Cl)c2)C(=O)O1 (stereo not shown)', 70),
  ('COC(=O)[C@H]1C[C@@H](NC(=O)C2(C)CN(c3cc(F)cc(F)c3)C(=O)O2)[C@H]2C[C@H]21 (stereo partly shown)', 0),
  ('CNC(=O)C1C=CC(NC(=O)C2(C)CN(c3cc(Cl)cc(Cl)c3)C(=O)O2)C1 (stereo not shown)', 60);

Note: attention shifts to another entry.
Case CC1(C(=O)NC2C=CC(C(=O)OCCS(C)(=O)=O)C2)CN(c2cc(F)cc(F)c2)C(=O)O1 (stereo not shown) , ragweed (common ragweed, Ambrosia artemisiifolia), Ragweed plant response rating (0 to 100 scale) recorded as 90
